# target_system: F876L mutant Androgen Receptor (AR-F876L) (Homo sapiens, UniProt P10275, F877L)
# Construct: expressed in transfected cells; host or cells: LNCaP
# Sequence (P10275 1-920 F877L): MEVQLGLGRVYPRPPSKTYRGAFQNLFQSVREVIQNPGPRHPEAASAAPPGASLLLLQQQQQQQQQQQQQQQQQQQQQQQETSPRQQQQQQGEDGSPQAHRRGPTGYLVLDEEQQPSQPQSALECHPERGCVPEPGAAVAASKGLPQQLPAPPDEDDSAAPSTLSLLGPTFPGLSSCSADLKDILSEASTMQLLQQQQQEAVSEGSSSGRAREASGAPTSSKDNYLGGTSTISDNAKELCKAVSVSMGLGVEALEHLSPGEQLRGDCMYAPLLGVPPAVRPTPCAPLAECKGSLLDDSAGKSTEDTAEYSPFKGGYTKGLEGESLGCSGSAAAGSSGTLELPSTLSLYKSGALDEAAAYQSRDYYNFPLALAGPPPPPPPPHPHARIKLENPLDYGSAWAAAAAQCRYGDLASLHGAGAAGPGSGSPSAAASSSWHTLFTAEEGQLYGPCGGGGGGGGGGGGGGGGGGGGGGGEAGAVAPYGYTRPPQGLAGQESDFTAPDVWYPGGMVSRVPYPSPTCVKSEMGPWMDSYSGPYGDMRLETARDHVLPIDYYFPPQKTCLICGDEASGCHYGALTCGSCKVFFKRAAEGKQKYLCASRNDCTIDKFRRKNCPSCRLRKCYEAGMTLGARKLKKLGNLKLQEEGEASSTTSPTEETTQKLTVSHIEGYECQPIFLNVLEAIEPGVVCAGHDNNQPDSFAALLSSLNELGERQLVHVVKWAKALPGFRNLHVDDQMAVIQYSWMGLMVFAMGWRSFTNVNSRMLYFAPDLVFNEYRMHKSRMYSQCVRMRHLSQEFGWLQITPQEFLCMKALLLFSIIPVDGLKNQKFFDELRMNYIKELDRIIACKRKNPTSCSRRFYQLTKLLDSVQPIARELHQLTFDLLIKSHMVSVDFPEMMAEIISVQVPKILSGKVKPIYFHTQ
# experiment_description: AR reporter assay, LNCaP-AR-F876L ANT (antagonist mode)
# Assay type: cell-based
# experimental_conditions: read-out: LNCaP-AR-F876L ANT MAX % Inh
Counter-ions that a name gives are not always drawn.
experimental_readout: Emax (%)
I only need the number, in %, no unit after it.

# example entries with known answers
CN1CCC(Oc2ccc(N3C(=S)N(c4ccc(C#N)c(Cl)c4)C(=O)C3(C)C)cc2)CC1 [Compound 8, hydrochloride] : 101
N#Cc1ccc(N2C(=O)C3(CCC3)N(c3ccc(OC4CCNCC4)nc3)C2=S)cc1C(F)(F)F [Compound 13, hydrochloride] : 102
CC1(C)C(=O)N(c2ccc(C#N)c(C(F)(F)F)c2)C(=S)N1c1ccc(OC2CCNCC2)cc1 : 102
CN1CCC(Oc2ccc(N3C(=S)N(c4ccc(C#N)c(C(F)(F)F)c4)C(=O)C34CCC4)cn2)CC1 : 101
CC1(C)C(=O)N(c2ccc(C#N)c(C(F)(F)F)c2)C(=S)N1c1ccc(OC2CCNCC2)nc1 [Compound 3, hydrochloride] : 102
CN1CCC(Oc2ccc(N3C(=S)N(c4ccc(C#N)c(C(F)(F)F)c4)C(=O)C3(C)C)cn2)CC1 [Compound 4, hydrochloride] : 102

Recorded Emax (compound CN1CCC(Oc2ccc(N3C(=S)N(c4ccc(C#N)c(Cl)c4)C(=O)C34CCC4)cc2)CC1 ): 99.5

Recorded result, N#Cc1ccc(N2C(=O)C3(CCC3)N(c3ccc(OC4CCNCC4)cc3)C2=S)cc1C(F)(F)F , Emax: 102

Where do these numbers come from? They come from patent US20190337924A1.
